The values you see were collected from patent US8450525B2.

- Test system: HCT 116 (colon) cells
# True = GI50 below 3 µM (exclusive); False = GI50 at/above 3 µM

Please review the following examples before continuing.
- input-smiles: "Nc1ccccc1NC(=O)c1ccc(/C=C(/C(=O)NC2CC2)c2c[nH]c3ccccc23)cc1"
  class: "True"
- input-smiles: "COc1ccc(/C(=C\\c2ccc(C(=O)Nc3ccccc3N)cc2)C(=O)NC2CC2)cc1"
  class: "True"
- input-smiles: "O=C(NC1CC1)/C(=C/c1ccc(C(=O)NCc2ccc(C(=O)NO)cc2)cc1)c1ccccc1Cl"
  class: "False"
- input-smiles: "Nc1ccccc1NC(=O)c1ccc(/C=C(/C(=O)NC2CC2)c2c(F)cccc2F)cc1"
  class: "False"
- input-smiles: "CNC(=O)/C(=C/c1ccc(C(=O)Nc2ccccc2N)cc1)c1ccc(F)cc1"
  class: "False"
- input-smiles: "O=C(/C=C/c1ccc(/C=C(/C(=O)NC2CCCCCCC2)c2ccc(F)cc2)cc1)NO"
  class: "True"
- input-smiles: "O=C(/C=C/c1ccc(/C=C(/C(=O)NC2CC2)c2cccnc2)cc1)NO"
  class: "False"
- input-smiles: "O=C(CCCCCNC(=O)c1ccc(/C=C(/C(=O)NC2CC2)c2cccc(F)c2)cc1)NO"
  class: "False"

q: Item O=C(/C=C/c1ccc(/C=C(/C(=O)N2CCOCC2)c2ccccc2F)cc1)NCc1ccc(C(=O)NO)cc1 : GI50 beneath 3 µM, strictly?
a: False

---

- Tested on: HDAC (Mouse Liver Extract)
- Construct: Mouse liver enzyme (10 mg/ml) was diluted 1:6 with HDAC buffer
- test-protocol: HDAC inhibition assay using Boc-Lys(Ac)-AMC substrate, mouse liver enzyme
- Assay type: biochemical
- measurement-conditions: 10 μM
property-name: HDAC Inhibition % (10 μM) (%)
Entry rule: numbers only, all in %.

- input-smiles: "O=C(NC1CC1)C(=Cc1ccc(C(=O)Nc2ccccc2O)cc1)c1ccc(F)cc1"
  HDAC Inhibition % (10 μM) [%]: 53.9
- input-smiles: "COc1ccc(/C(=C\\c2ccc(/C=C/C(=O)NO)cc2)C(=O)NC2CC2)cc1OC"
  HDAC Inhibition % (10 μM) [%]: 93.5
- input-smiles: "Nc1ccccc1NC(=O)c1ccc(/C=C(/C(=O)NC2CC2)c2cc(F)ccc2F)cc1"
  HDAC Inhibition % (10 μM) [%]: 56.0
- input-smiles: "Nc1ccccc1NC(=O)c1ccc(/C=C(/C(=O)NC2CC2)c2cccnc2)cc1"
  HDAC Inhibition % (10 μM) [%]: 55.4

q: Entry O=C(/C=C/c1ccc(/C=C(/C(=O)NC2CC2)c2ccc(F)cc2)cc1)NCCCCCC(=O)NO , system HDAC (Mouse Liver Extract): what HDAC Inhibition % (10 μM) was measured?
a: 94.4

q: Give the reported HDAC Inhibition % (10 μM) for O=C(/C=C/c1ccc(/C=C(/C(=O)N2CCOCC2)c2ccccc2F)cc1)NCc1ccc(C(=O)NO)cc1 (system: HDAC (Mouse Liver Extract)).
a: 98.8

q: I'm curious: which HDAC Inhibition % (10 μM) was measured for Nc1ccccc1NC(=O)c1ccc(/C=C(/C(=O)NC2CC2)c2ccc(F)cc2Cl)cc1 tested on HDAC (Mouse Liver Extract)?
a: 66.6

q: Any idea what HDAC Inhibition % (10 μM) came out for O=C(/C=C/c1ccc(/C=C(/C(=O)N2CCOCC2)c2ccccc2F)cc1)NO on HDAC (Mouse Liver Extract)?
a: 99.9

---

- Tested on: HCT 116 (colon) cells
- test-protocol: Anti-cancer screen, growth inhibition (MTT)
- Format: cell-based
- measurement-conditions: Homo sapiens, HCT-116 cells, 48 hours of incubation
Output YES for records whose GI50 is lower than 8 µM, NO for records at or above 8 µM.

Recorded results for 8 compounds are shown here.
- input-smiles: "O=C(/C=C/c1ccc(CNC(=O)c2ccc(/C=C(/C(=O)NC3CC3)c3ccc(F)cc3)cc2)cc1)NO"
  class: "YES"
- input-smiles: "Nc1ccccc1NC(=O)c1ccc(/C=C(/CNC2CC2)c2ccc(F)cc2)cc1"
  class: "YES"
- input-smiles: "Nc1ccccc1NC(=O)c1ccc(/C=C(/C(=O)NC2CC2)c2ccc(-c3ccccc3)cc2)cc1"
  class: "YES"
- input-smiles: "O=C(CCCCCNC(=O)c1ccc(/C=C(/C(=O)NC2CC2)c2ccc(F)cc2)cc1)NO"
  class: "NO"
- input-smiles: "Cc1ccc(/C(=C\\c2ccc(/C=C/C(=O)Nc3ccccc3N)cc2)C(=O)NC2CC2)cc1"
  class: "NO"
- input-smiles: "O=C(NC1CC1)C(=Cc1ccc(C(=O)Nc2ccccc2O)cc1)c1ccc(F)cc1"
  class: "NO"
- input-smiles: "Nc1ccccc1NC(=O)c1ccc(/C=C(/C(=O)NC2CC2)c2ccc3c(c2)OCO3)cc1"
  class: "YES"
- input-smiles: "O=C(/C=C/c1ccc(/C=C(/C(=O)NC2CC2)c2cccc(Cl)c2)cc1)NCCCCCC(=O)NO"
  class: "YES"

q: Say whether its GI50 is strictly beneath 8 µM. Entry: COc1cccc(/C(=C\c2ccc(/C=C/C(=O)NCc3ccc(C(=O)NO)cc3)cc2)C(=O)NC2CC2)c1
a: YES

q: Is GI50 strictly under 8 µM for the entry O=C(/C=C/c1ccc(/C=C(/C(=O)NC2CC2)c2cccc(Cl)c2)cc1)NCc1ccc(C(=O)NO)cc1 ?
a: YES

q: hey, is GI50 for CC(C)NC(=O)/C(=C/c1ccc(/C=C/C(=O)NO)cc1)c1cccc(F)c1 lower than 8 µM or not?
a: YES

q: Hi there! Is GI50 for O=C(NC1CC1)/C(=C/c1ccc(C(=O)NCc2ccc(C(=O)NO)cc2)cc1)c1cccc(Cl)c1 below 8 µM, do you know?
a: NO

q: Field: below-cutoff. Rule: recorded GI50 strictly less than 8 µM. Subject: O=C(/C=C/c1ccc(/C=C(/C(=O)NC2CC2)c2cccs2)cc1)NO
a: YES

q: Field: below-cutoff. Rule: recorded GI50 strictly less than 8 µM. Subject: O=C(NC1CC1)/C(=C/c1ccc(C(=O)NCc2ccc(C(=O)NO)cc2)cc1)c1cccc(F)c1
a: NO

q: I'd appreciate it if you could check whether COc1cccc(/C(=C\c2ccc(C(=O)Nc3ccccc3N)cc2)C(=O)NC2CC2)c1 has GI50 smaller than 8 µM.
a: NO

q: Would you kindly verify if GI50 of Nc1ccccc1NC(=O)c1ccc(/C=C(/C(=O)NC2CC2)c2cccnc2)cc1 is strictly less than 8 µM?
a: NO

q: Threshold test, GI50 < 8 µM: O=C(/C=C/c1ccc(/C=C(/C(=O)NC2CC2)c2ccccc2)cc1)NCc1ccc(C(=O)NO)cc1
a: NO

q: Find out if reported GI50 for COc1ccc(/C(=C\c2ccc(/C=C/C(=O)NCc3ccc(C(=O)NO)cc3)cc2)C(=O)NC2CC2)cc1 is less than 8 µM
a: YES

q: Is it true that GI50 reported for O=C(NC1CC1)/C(=C/c1ccc(C(=O)NCc2ccc(C(=O)NO)cc2)cc1)c1ccc(F)c(F)c1 is less than 8 µM?
a: NO

q: Below 8 µM on GI50? Entry Nc1ccccc1NC(=O)/C=C/c1ccc(/C=C(/C(=O)NC2CC2)c2cccc(Cl)c2)cc1
a: NO

q: Please determine if O=C(/C=C/c1ccc(/C=C(/C(=O)Nc2ccccc2)c2ccc(F)cc2)cc1)NO is below 8 µM in terms of GI50.
a: YES

---

- System: HDAC (Mouse Liver Extract)
- Construct: Mouse liver enzyme (10 mg/ml) was diluted 1:6 with HDAC buffer
- test-protocol: HDAC inhibition assay using Boc-Lys(Ac)-AMC substrate, mouse liver enzyme
- Type: biochemical
- measurement-conditions: 1 μM
property-name: HDAC Inhibition % (1 μM) (%)
Please respond with the number in % and leave the unit unwritten.

Below, each entry is followed by its recorded HDAC Inhibition % (1 μM) result.
- input-smiles: "Nc1ccccc1NC(=O)c1ccc(/C=C(/C(=O)NC2CC2)c2cc(F)ccc2F)cc1"
  HDAC Inhibition % (1 μM) [%]: 34.7
- input-smiles: "O=C(/C=C/c1ccc(/C=C(/C(=O)N2CCOCC2)c2ccccc2F)cc1)NCCCCCC(=O)NO"
  HDAC Inhibition % (1 μM) [%]: 91.0
- input-smiles: "O=C(/C=C/c1ccc(/C=C(/C(=O)NC2CC2)c2cccc(Cl)c2)cc1)NCCCCCC(=O)NO"
  HDAC Inhibition % (1 μM) [%]: 100.0
- input-smiles: "Cc1ccccc1/C(=C\\c1ccc(C(=O)Nc2ccccc2N)cc1)C(=O)NC1CC1"
  HDAC Inhibition % (1 μM) [%]: 39.6
- input-smiles: "O=C(/C=C/c1ccc(/C=C(/C(=O)NC2CC2)c2cccnc2)cc1)NO"
  HDAC Inhibition % (1 μM) [%]: 84.3
- input-smiles: "Nc1ccccc1NC(=O)c1ccc(/C=C(/C(=O)N2CCOCC2)c2ccc(F)cc2)cc1"
  HDAC Inhibition % (1 μM) [%]: 36.1
- input-smiles: "Nc1ccccc1NC(=O)c1ccc(/C=C(/C(=O)NC2CC2)c2ccc(O)cc2)cc1"
  HDAC Inhibition % (1 μM) [%]: 31.8
- input-smiles: "O=C(/C=C/c1ccc(/C=C(/C(=O)NC2CC2)c2cccs2)cc1)NO"
  HDAC Inhibition % (1 μM) [%]: 89.6

q: Which HDAC Inhibition % (1 μM) is listed for O=C(/C=C/c1ccc(/C=C(/C(=O)NC2CCCCCCC2)c2ccc(F)cc2)cc1)NO ?
a: 68.6

q: Request the reported HDAC Inhibition % (1 μM) associated with Nc1ccccc1NC(=O)c1ccc(/C=C(/C(=O)NC2CC2)c2ccccc2Cl)cc1
a: 29.9
